Reported Bliss excess values for the following compounds.
Tested on: WSU-DLCL2 (B-Cell Non-Hodgkin's Lymphoma)
Assay: Bliss excess, mean over the matrix (fraction); higher = more synergy;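 also: after 72 h of two-drug dosing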
Field format: numeric only.

Supply recorded Bliss excess for Cc1c2c(nn1C)CSCc1cc(n(C)n1)CSc1cc(c3ccccc3c1)OCCCc1c(C(=O)O)n(C)c3c-2c(Cl)ccc13 [AZD5991] + C[C@@H](Nc1cc(F)cc(F)c1)c1cc(C(=O)N(C)C)cc2c(=O)cc(N3CCOCC3)oc12 [AZD8186] (first compound max 1 µM, 7x7, partner max 3 µM) here. -0.058

Supply recorded Bliss excess for CC(=O)c1c(C)c2cnc(Nc3ccc(N4CCNCC4)cn3)nc2n(C2CCCC2)c1=O [Palbociclib] + CC1(C)CCC(CN2CCN(c3ccc(C(=O)NS(=O)(=O)c4ccc(NCC5CCOCC5)c([N+](=O)[O-])c4)c(Oc4cnc5[nH]ccc5c4)c3)CC2)=C(c2ccc(Cl)cc2)C1 [Venetoclax] (first compound max 10 µM, 7x7, partner max 1 µM) here. 0.0277

Supply recorded Bliss excess for CN(CCO)CC[C@H](CSc1ccccc1)Nc1ccc(S(=O)(=O)NC(=O)c2ccc(N3CCC([C@@H](O)c4ccccc4-c4ccc(Cl)cc4)CC3)cc2)cc1S(=O)(=O)C(F)(F)F [AZD4320] + C[C@@H]1COCCN1C2=NC(=NC(=C2)C3(CC3)[S@](=N)(=O)C)C4=C5C=CNC5=NC=C4 [AZD6738] (first compound max 1 µM, 7x7, partner max 10 µM) here. 0.0329

Supply recorded Bliss excess for COc1cccc(OCCCN)c1-c1cc(Nc2cnc(C#N)cn2)n[nH]1 [Prexasertib] + C[C@@H]1COCCN1C2=NC(=NC(=C2)C3(CC3)[S@](=N)(=O)C)C4=C5C=CNC5=NC=C4 [AZD6738] (first compound max 1 µM, 7x7, partner max 10 µM) here. 0.0096

* * *

Reported Bliss excess values for the following molecules.
Test system: Saos-2 (Osteosarcoma)
Test: Bliss excess, mean over the matrix (fraction); higher = more synergy

Sample records with Bliss excess:
CN(CCO)CC[C@H](CSc1ccccc1)Nc1ccc(S(=O)(=O)NC(=O)c2ccc(N3CCC([C@@H](O)c4ccccc4-c4ccc(Cl)cc4)CC3)cc2)cc1S(=O)(=O)C(F)(F)F [AZD4320] + C[C@@H]1COCCN1C2=NC(=NC(=C2)C3(CC3)[S@](=N)(=O)C)C4=C5C=CNC5=NC=C4 [AZD6738] (first compound max 1 µM, 7x7, partner max 10 µM)    0.0256
NC1(C(=O)N[C@@H](CCO)c2ccc(Cl)cc2)CCN(c2ncnc3[nH]ccc23)CC1 [Capivasertib] + CC(=O)c1c(C)c2cnc(Nc3ccc(N4CCNCC4)cn3)nc2n(C2CCCC2)c1=O [Palbociclib] (first compound max 10 µM, 7x7, partner max 10 µM)    0.0005
C[C@@H]1COCCN1c1cc(C2([S@](C)(=N)=O)CC2)nc(-c2ccnc3[nH]ccc23)n1 [AZD6738] + Nc1ccn([C@@H]2O[C@H](CO)[C@@H](O)C2(F)F)c(=O)n1 [Gemcitabine] (first compound max 10 µM, 7x7, partner max 0.3 µM)    0.0312

Supply recorded Bliss excess for COc1cc2ncnc(Nc3ccc(F)c(Cl)c3)c2cc1OCCCN1CCOCC1 [Gefitinib] + CC(C)n1c(=O)n(C)c2cnc3cc(F)c(-c4ccc(OCCCN5CCCCC5)nc4)cc3c21 [AZD1390] (first compound max 10 µM, 7x7, partner max 0.3 µM) here. -0.0621

* * *

System: Saos-2 (Osteosarcoma)
Test: Bliss excess, mean over the matrix (fraction); higher = more synergy
MEASURED_PROPERTY: Bliss excess
Field format: numeric only.

COc1nnc2ccc(N3CCC(c4ccc(OCCN5CCN(C)C(=O)[C@H]5C)cc4)CC3)nn12 [AZD5153] + Cn1cnc2c(F)c(Nc3ccc(Br)cc3Cl)c(C(=O)NOCCO)cc21 [Selumetinib] (first compound max 1 µM, 7x7, partner max 10 µM)    -0.0452

Supply recorded Bliss excess for Cc1cc2ncnn2cc1Nc1ncc2c(n1)n(C1CCOCC1)c(=O)n2C [AZD7648] + O=C(c1cc(Cc2n[nH]c(=O)c3ccccc23)ccc1F)N1CCN(C(=O)C2CC2)CC1 [Olaparib] (first compound max 10 µM, 7x7, partner max 10 µM) here. -0.0322

Supply recorded Bliss excess for C[C@@H]1COCCN1c1cc(C2([S@](C)(=N)=O)CC2)nc(-c2ccnc3[nH]ccc23)n1 [AZD6738] + O=C(c1cc(Cc2n[nH]c(=O)c3ccccc23)ccc1F)N1CCN(C(=O)C2CC2)CC1 [Olaparib] (first compound max 10 µM, 7x7, partner max 10 µM) here. 0.0118

* * *

System: RCC10RGB (Kidney Carcinoma)
Test: Bliss excess, mean over the matrix (fraction); higher = more synergy
Reported Bliss excess values for the following compounds.
Field format: numeric only.

COc1cc2c(cc1OCCCCCOc1cc3c(cc1OC)C(=O)N1C=C(C)C[C@H]1C=N3)N=C[C@@H]1CC(C)=CN1C2=O [SG3199] + O=C(c1cc(Cc2n[nH]c(=O)c3ccccc23)ccc1F)N1CCN(C(=O)C2CC2)CC1 [Olaparib] (first compound max 0.001 µM, 7x7, partner max 10 µM)    -0.052

Supply recorded Bliss excess for NC1(C(=O)N[C@@H](CCO)c2ccc(Cl)cc2)CCN(c2ncnc3[nH]ccc23)CC1 [Capivasertib] + CC(=O)c1c(C)c2cnc(Nc3ccc(N4CCNCC4)cn3)nc2n(C2CCCC2)c1=O [Palbociclib] (first compound max 10 µM, 7x7, partner max 10 µM) here. -0.0368

* * *

Tested on: SK-MEL-1 (Melanoma)
Experiment: Bliss excess, mean over the matrix (fraction); higher = more synergy
MEASURED_PROPERTY: Bliss excess
Field format: numeric only.

C=CCn1c(=O)c2cnc(Nc3ccc(N4CCN(C)CC4)cc3)nc2n1-c1cccc(C(C)(C)O)n1 [AZD1775] + O=C(c1cc(Cc2n[nH]c(=O)c3ccccc23)ccc1F)N1CCN(C(=O)C2CC2)CC1 [Olaparib] (first compound max 1 µM, partner max 10 µM)    -0.0054
Cc1c2c(nn1C)CSCc1cc(n(C)n1)CSc1cc(c3ccccc3c1)OCCCc1c(C(=O)O)n(C)c3c-2c(Cl)ccc13 [AZD5991] + C[C@@H]1COCCN1C2=NC(=NC(=C2)C3(CC3)[S@](=N)(=O)C)C4=C5C=CNC5=NC=C4 [AZD6738] (first compound max 1 µM, 7x7, partner max 10 µM)    -0.0255
C=CCn1c(=O)c2cnc(Nc3ccc(N4CCN(C)CC4)cc3)nc2n1-c1cccc(C(C)(C)O)n1 [AZD1775] + CCc1c2c(nc3ccc(O)cc13)-c1cc3c(c(=O)n1C2)COC(=O)[C@]3(O)CC [SN-38] (first compound max 1 µM, partner max 0.3 µM)    0.0154
COc1nnc2ccc(N3CCC(c4ccc(OCCN5CCN(C)C(=O)[C@H]5C)cc4)CC3)nn12 [AZD5153] + CCN(CCO)CCCOc1ccc2c(Nc3cc(CC(=O)Nc4cccc(F)c4)[nH]n3)ncnc2c1 [AZD2811] (first compound max 1 µM, 7x7, partner max 1 µM)    -0.0295
CC1(C)CCC(CN2CCN(c3ccc(C(=O)NS(=O)(=O)c4ccc(NCC5CCOCC5)c([N+](=O)[O-])c4)c(Oc4cnc5[nH]ccc5c4)c3)CC2)=C(c2ccc(Cl)cc2)C1 [Venetoclax] + CS(=O)(=O)CCNCc1ccc(-c2ccc3ncnc(Nc4ccc(OCc5cccc(F)c5)c(Cl)c4)c3c2)o1 [Lapatinib] (first compound max 1 µM, 7x7, partner max 10 µM)    0.0097
O=C(c1cc(Cc2n[nH]c(=O)c3ccccc23)ccc1F)N1CCN(C(=O)C2CC2)CC1 [Olaparib] + COc1nnc2ccc(N3CCC(c4ccc(OCCN5CCN(C)C(=O)[C@H]5C)cc4)CC3)nn12 [AZD5153] (first compound max 10 µM, 7x7, partner max 1 µM)    -0.0316

# context switch: different compound, same Bliss excess
Supply recorded Bliss excess for COc1cccc(OCCCN)c1-c1cc(Nc2cnc(C#N)cn2)n[nH]1 [Prexasertib] + C=CCn1c(=O)c2cnc(Nc3ccc(N4CCN(C)CC4)cc3)nc2n1-c1cccc(C(C)(C)O)n1 [AZD1775] (first compound max 1 µM, partner max 1 µM) here. -0.0084

* * *

Reported Bliss excess values for the following compounds.
System: ETK-1 (Biliary Tract Carcinoma)
Experiment: Bliss excess, mean over the matrix (fraction); higher = more synergy
Field format: numeric only.

Sample records with Bliss excess:
Cc1cc2ncnn2cc1Nc1ncc2c(n1)n(C1CCOCC1)c(=O)n2C [AZD7648] + CN(C)CCCOc1ccc(-c2ccc3ncc4c(c3c2)n(C2CCOCC2)c(=O)n4C)cn1 [AZD0156] (first compound max 10 µM, 7x7, partner max 1 µM)    -0.0041
Cc1cc2ncnn2cc1Nc1ncc2c(n1)n(C1CCOCC1)c(=O)n2C [AZD7648] + C[C@@H]1COCCN1C2=NC(=NC(=C2)C3(CC3)[S@](=N)(=O)C)C4=C5C=CNC5=NC=C4 [AZD6738] (first compound max 10 µM, 7x7, partner max 10 µM)    -0.0173
Cc1nc(Nc2ncc(C(=O)Nc3c(C)cccc3Cl)s2)cc(N2CCN(CCO)CC2)n1 [Dasatinib] + CC(=O)Nc1cccc(-n2c(=O)n(C3CC3)c(=O)c3c(Nc4ccc(I)cc4F)n(C)c(=O)c(C)c32)c1 [Trametinib] (first compound max 2 µM, 7x7, partner max 1 µM)    0.0226

# context switch: different compound, same Bliss excess
Supply recorded Bliss excess for CN(CCO)CC[C@H](CSc1ccccc1)Nc1ccc(S(=O)(=O)NC(=O)c2ccc(N3CCC([C@@H](O)c4ccccc4-c4ccc(Cl)cc4)CC3)cc2)cc1S(=O)(=O)C(F)(F)F [AZD4320] + C1CN(CCC1(C(=O)N[C@@H](CCO)C2=CC=C(C=C2)Cl)N)C3=NC=NC4=C3C=CN4 [Capivasertib] (first compound max 1 µM, 7x7, partner max 3 µM) here. -0.0305
